Molecular target: T1, IL10Rα and IL2Rγ on human primary cells (CD8 T cells, CD4 T cells, monocytes) (human) (UniProt Q13651)
T1 sequence (looked up) 1: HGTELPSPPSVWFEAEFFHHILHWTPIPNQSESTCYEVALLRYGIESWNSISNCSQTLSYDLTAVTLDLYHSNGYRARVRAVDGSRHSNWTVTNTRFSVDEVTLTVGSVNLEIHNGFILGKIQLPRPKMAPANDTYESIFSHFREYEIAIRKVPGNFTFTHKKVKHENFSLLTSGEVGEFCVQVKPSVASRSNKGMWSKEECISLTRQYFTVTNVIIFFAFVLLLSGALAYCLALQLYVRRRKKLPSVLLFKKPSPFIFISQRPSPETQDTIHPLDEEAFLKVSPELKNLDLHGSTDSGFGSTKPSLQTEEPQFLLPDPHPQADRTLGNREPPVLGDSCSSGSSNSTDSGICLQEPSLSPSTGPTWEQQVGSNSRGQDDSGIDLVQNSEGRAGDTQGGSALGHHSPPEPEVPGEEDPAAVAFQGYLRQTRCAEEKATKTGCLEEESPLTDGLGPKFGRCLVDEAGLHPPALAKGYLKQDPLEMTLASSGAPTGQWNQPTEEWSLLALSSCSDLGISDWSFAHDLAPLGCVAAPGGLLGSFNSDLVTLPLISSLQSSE
T1 sequence (looked up) 2: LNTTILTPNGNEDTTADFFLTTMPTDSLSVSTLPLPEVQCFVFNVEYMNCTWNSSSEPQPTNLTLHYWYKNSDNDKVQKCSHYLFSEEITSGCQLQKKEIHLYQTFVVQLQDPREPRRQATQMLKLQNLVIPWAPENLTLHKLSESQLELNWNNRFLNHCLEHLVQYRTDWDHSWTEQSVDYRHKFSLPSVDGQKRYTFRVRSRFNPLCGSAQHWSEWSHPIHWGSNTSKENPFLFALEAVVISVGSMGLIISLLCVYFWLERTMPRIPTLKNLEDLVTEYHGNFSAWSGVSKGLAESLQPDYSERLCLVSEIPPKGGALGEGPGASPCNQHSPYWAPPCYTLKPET
Experiment: cell-based or functional assay
Reported pSTAT3 (MFI) in CD4 T cells at 0.01 µM values are given for each entry in this list.
// units = MFI; emit number, no label

binder="hIL10Ra_VHH14-hIL2Rg_VHH19, linker GGGSGGGS, tag his (bispecific antibody, not shown: small tags and cut ends) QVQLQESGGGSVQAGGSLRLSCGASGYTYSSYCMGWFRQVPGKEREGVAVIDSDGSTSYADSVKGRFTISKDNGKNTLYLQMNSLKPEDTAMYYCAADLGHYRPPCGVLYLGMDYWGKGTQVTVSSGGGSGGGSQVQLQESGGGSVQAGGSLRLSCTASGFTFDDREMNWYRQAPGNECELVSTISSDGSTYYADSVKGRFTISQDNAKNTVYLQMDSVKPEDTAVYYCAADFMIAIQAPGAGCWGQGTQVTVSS" endpoint_result=9550
binder="hIL10Ra_VHH14-hIL2Rg_VHH19, no linker, tag his (bispecific antibody, not shown: small tags and cut ends) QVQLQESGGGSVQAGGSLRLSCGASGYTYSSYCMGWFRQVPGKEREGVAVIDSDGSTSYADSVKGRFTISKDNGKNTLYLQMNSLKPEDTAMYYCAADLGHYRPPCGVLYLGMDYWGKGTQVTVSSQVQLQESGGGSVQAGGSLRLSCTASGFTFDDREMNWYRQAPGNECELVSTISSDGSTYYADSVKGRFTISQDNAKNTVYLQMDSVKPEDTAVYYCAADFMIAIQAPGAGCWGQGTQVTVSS" endpoint_result=12500
binder="hIL10Ra_VHH14-hIL2Rg_VHH19, linker GGGS, tag his (bispecific antibody, not shown: small tags and cut ends) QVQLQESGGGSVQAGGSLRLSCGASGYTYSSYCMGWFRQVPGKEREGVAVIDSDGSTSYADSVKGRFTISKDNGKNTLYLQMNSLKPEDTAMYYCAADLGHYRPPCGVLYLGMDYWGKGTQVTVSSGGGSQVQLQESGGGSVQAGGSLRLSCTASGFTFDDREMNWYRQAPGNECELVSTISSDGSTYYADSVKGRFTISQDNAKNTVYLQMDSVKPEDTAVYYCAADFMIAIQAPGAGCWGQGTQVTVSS" endpoint_result=11700

# context switch: different binder, same pSTAT3 (MFI) in CD4 T cells at 0.01 µM
The reported value for hIL10Ra_VHH14-hIL2Rg_VHH19, linker …, tag his (bispecific antibody, not shown: small tags and cut ends) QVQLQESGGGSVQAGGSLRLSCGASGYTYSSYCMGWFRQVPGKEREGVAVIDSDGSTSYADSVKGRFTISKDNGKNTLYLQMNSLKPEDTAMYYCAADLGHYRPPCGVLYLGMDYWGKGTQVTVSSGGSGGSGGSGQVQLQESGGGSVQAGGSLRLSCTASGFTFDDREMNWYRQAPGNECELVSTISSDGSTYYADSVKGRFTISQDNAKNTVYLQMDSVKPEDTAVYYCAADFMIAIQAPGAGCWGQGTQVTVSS in terms of pSTAT3 (MFI) in CD4 T cells at 0.01 µM is 11100
